- System: Human immunodeficiency virus 1
- assay.overview: Selectivity ratio of EC50 for antiviral activity against GS-9160-resistant HIV1 selected after 8 passages to EC50 for antiviral activity against wild-type HIV1 3B
- Assay type: functional
Task for the reader: assign each of the following compounds its reported Ratio EC50.

> print(dat)
                              line.notation  assay.value
1  CC(C)CN(C[C@@H](O)[C@H](Cc1ccccc1)NC(=O)O[C@H]1CCOC1)S(=O)(=O)c1ccc(N)cc1            4

Hi, could you look up Ratio EC50 for each item in my list?
1. O=C(NCc1ccc(F)cc1)c1nc(N2CCCCS2(=O)=O)c2cccnc2c1O
2. CN(c1c2c(c(O)c3ncccc13)C(=O)N(Cc1ccc(F)cc1)C2)S(C)(=O)=O
3. Nc1ccn([C@@H]2CS[C@H](CO)O2)c(=O)n1

Result block:
[65, 60, 5.7]
